- Test system: HOP-62 complex spheroids with HUVEC/MSC, viability
- Assay Protocol: Anticancer human tumor HOP-62 cell line growth inhibition [RAS];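 further: spheroids exposed to agents for seven days before readout; 100% = DMSO vehicle control viability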
- Experimental Parameters: second compound 0.0949 µM; first compound 0.0949 µM; stronger effect = lower value
What viability, T/C was measured for each of the following?
One number for each entry, in %.

Would you mind giving viability, T/C for every molecule in the list below?
1. CC1(C)CCC(Nc2ncc(C(F)(F)F)c(-c3c[nH]c4c(P(C)(C)=O)c(C#N)ccc34)n2)CN1 (centres undefined) + CCn1c(-c2cc(N3CCN(C)CC3)cnc2C(C)OC)c2c3cc(ccc31)-c1csc(n1)CC(NC(=O)C1CC1C)C(=O)N1CCCC(N1)C(=O)OCC(C)(C)C2
2. CCc1c2c(nc3ccc(O)cc13)-c1cc3c(c(=O)n1C2)COC(=O)[C@]3(O)CC + CCn1c(-c2cc(N3CCN(C)CC3)cnc2C(C)OC)c2c3cc(ccc31)-c1csc(n1)CC(NC(=O)C1CC1C)C(=O)N1CCCC(N1)C(=O)OCC(C)(C)C2

Result:
1: 51.4; 2: 12.9

Would you mind giving viability, T/C for every molecule in the list below?
1. CC1(C)CCC(Nc2ncc(C(F)(F)F)c(-c3c[nH]c4c(P(C)(C)=O)c(C#N)ccc34)n2)CN1 (centres undefined) + CCn1c(-c2cccnc2C(C)OC)c2c3cc(ccc31)N1CCOC(CC(NC(=O)C(C(C)C)N(C)C(=O)C3(F)CCN(C(=O)C#CC(C)(C)N(C)C)CC3)C(=O)N3CCCC(N3)C(=O)OCC(C)(C)C2)C1
2. CCc1c2c(nc3ccc(O)cc13)-c1cc3c(c(=O)n1C2)COC(=O)[C@]3(O)CC + CCn1c(-c2cccnc2C(C)OC)c2c3cc(ccc31)N1CCOC(CC(NC(=O)C(C(C)C)N(C)C(=O)C3(F)CCN(C(=O)C#CC(C)(C)N(C)C)CC3)C(=O)N3CCCC(N3)C(=O)OCC(C)(C)C2)C1

Result:
1. 33.1
2. 2.96

* * *

What viability, T/C was measured for each of the following?
- Test system: HOP-62 complex spheroids with HUVEC/MSC, viability
- Assay Protocol: Anticancer human tumor HOP-62 cell line growth inhibition [RAS];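 further: spheroids exposed to agents for seven days before readout; 100% = DMSO vehicle control viability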
- Experimental Parameters: second compound 0.316 µM; first compound 3.16 µM; stronger effect = lower value
One number for each entry, in %.

# count of solved cases: 5
Molecule: CC(C)NCC(C(=O)N1CCN(c2ncnc3c2C(C)CC3O)CC1)c1ccc(Cl)cc1 (stereo not given) + C#Cc1c(F)ccc2cc(O)cc(-c3ncc4c(N5CC6CCC(C5)N6)nc(OCC56CCCN5CC(F)C6)nc4c3F)c12
Subject Of Test: HOP-62 complex spheroids with HUVEC/MSC, viability
Result Units: %
Endpoint Result: 47.5

Molecule: C[C@@H](NC(=O)c1ncnc(N)c1Cl)c1ncc(C(=O)Nc2cc(C(F)(F)F)c(Cl)cn2)s1 + C#Cc1c(F)ccc2cc(O)cc(-c3ncc4c(N5CC6CCC(C5)N6)nc(OCC56CCCN5CC(F)C6)nc4c3F)c12
Subject Of Test: HOP-62 complex spheroids with HUVEC/MSC, viability
Result Units: %
Endpoint Result: 97.6

Molecule: CC(C)NCC(C(=O)N1CCN(c2ncnc3c2C(C)CC3O)CC1)c1ccc(Cl)cc1 (stereo not given) + C=CC(=O)N1CCN(c2nc(OCC3CCCN3C)nc3c(F)c(-c4nc(N)cc(C)c4C(F)(F)F)c(Cl)cc23)C(C)C1
Subject Of Test: HOP-62 complex spheroids with HUVEC/MSC, viability
Result Units: %
Endpoint Result: 23.5

Molecule: CCC(CC)c1cc(NC2CCC(N)C2)n2nccc2n1 (stereo not given) + C#Cc1c(F)ccc2cc(O)cc(-c3ncc4c(N5CC6CCC(C5)N6)nc(OCC56CCCN5CC(F)C6)nc4c3F)c12
Subject Of Test: HOP-62 complex spheroids with HUVEC/MSC, viability
Result Units: %
Endpoint Result: 0.69

Molecule: CC1(O)CCCC1n1c(=O)c(C(F)F)cc2cnc(NC3CCN(S(C)(=O)=O)CC3)nc21 (stereo not given) + C#Cc1c(F)ccc2cc(O)cc(-c3ncc4c(N5CC6CCC(C5)N6)nc(OCC56CCCN5CC(F)C6)nc4c3F)c12
Subject Of Test: HOP-62 complex spheroids with HUVEC/MSC, viability
Result Units: %
Endpoint Result: 42.2

Would you mind giving viability, T/C for every molecule in the list below?
1. CC(Nc1ccc2c(c1)OCCn1cc(N3C(=O)OCC3C(F)F)nc1-2)C(N)=O (stereo not given) + C=CC(=O)N1CCN(c2nc(OCC3CCCN3C)nc3c(F)c(-c4nc(N)cc(C)c4C(F)(F)F)c(Cl)cc23)C(C)C1
2. CCC(CC)c1cc(NC2CCC(N)C2)n2nccc2n1 (stereo not given) + C=CC(=O)N1CCN(c2nc(OCC3CCCN3C)nc3c(F)c(-c4nc(N)cc(C)c4C(F)(F)F)c(Cl)cc23)C(C)C1
3. Cc1nc(N2CCC3(CC2)COC(C)C3N)c(CO)nc1Sc1ccnc(N)c1Cl (stereo not given) + C=CC(=O)N1CCN(c2nc(OCC3CCCN3C)nc3c(F)c(-c4nc(N)cc(C)c4C(F)(F)F)c(Cl)cc23)C(C)C1
4. CC1(O)CCCC1n1c(=O)c(C(F)F)cc2cnc(NC3CCN(S(C)(=O)=O)CC3)nc21 (stereo not given) + C=CC(=O)N1CCN(c2nc(OCC3CCCN3C)nc3c(F)c(-c4nc(N)cc(C)c4C(F)(F)F)c(Cl)cc23)C(C)C1
5. NC1c2ccccc2OC12CCN(c1cnc3c(N4CCCc5ncccc54)n[nH]c3n1)CC2 (stereo not given) + C=CC(=O)N1CCN(c2nc(OCC3CCCN3C)nc3c(F)c(-c4nc(N)cc(C)c4C(F)(F)F)c(Cl)cc23)C(C)C1

Result:
20.5
0.89
12.1
21.9
6.82
